# Tested on: SU-DHL-4 cells
# Assay: Growth inhibition of SU-DHL-4 cells in a long term (11 days), CellTiter-Glo
# Type: cell-based, Human
# Test Context: Homo sapiens, 264 h; SU-DHL-4, 11 days; read-out: SU-DHL-4 (11 days) IC50
pIC50: −log10 of the molar value.
Measured Property: pIC50

Fc1ccc2c(c1CNc1ncc(C3=CCOCC3)c3nncn13)CCO2 : 8.40
O=S(=O)(C1CC1)N1CC=C(c2cnc(NCc3c(F)ccc4c3CCO4)n3cnnc23)CC1 : 8.40

###

# Tested on: Pfeiffer cells
# Assay: Pfeiffer cell growth inhibition in a long term (11 days), CellTiter-Glo
# Format: cell-based, Human
# Test Context: Homo sapiens, 264 h, 11 days, read-out: Experiment on Pfeiffer cell growth inhibition in a long term (11 days IC50)
pIC50: −log10 of the molar value.
Decision: pIC50 >= 8 yields yes, all other cases yield no.

CN1CCC(c2cnc(NCc3c(F)ccc4c3CCO4)n3cnnc23)=CC1=O : yes
O=C(OCc1ccccc1)N1CC=C(c2cnc(NCc3c(F)ccc4c3CCO4)n3cnnc23)CC1 : yes
Cc1ccc(S(=O)(=O)N2CC=C(c3cnc(NCc4ccco4)n4cnnc34)CC2)cc1 : no
CC(=O)N1CC=C(c2cnc(NCc3ccco3)n3cnnc23)CC1 : no
O=C(CN1CCOCC1)N1CC=C(c2cnc(NCc3ccco3)n3cnnc23)CC1 : no
CC(C)(C)OC(=O)N1CC=C(c2cnc(NCc3ccco3)n3cnnc23)CC1 : no
Cc1cc(C(=O)N2CC=C(c3cnc(NCc4c(F)ccc5c4CCO5)n4cnnc34)CC2)n(C)n1 : yes
O=C(c1cnco1)N1CC=C(c2cnc(NCc3c(F)ccc4c3CCO4)n3cnnc23)CC1 : yes
CC(C)(C)OC(=O)NC1CC=C(c2cnc(NCc3ccco3)n3cnnc23)CC1 (stereo not drawn) : no
CC(C)(C)NC(=O)N1CC=C(c2cnc(NCc3c(F)ccc4c3CCO4)n3cnnc23)CC1 : yes
CC(C)S(=O)(=O)N1CC=C(c2cnc(NCc3c(F)ccc4c3CCO4)n3cnnc23)CC1 : yes
CC(=O)N1CCC(c2cnc(NCc3c(F)ccc4c3CCO4)n3cnnc23)CC1 : yes
CC(=O)N1CC=C(c2cnc(NCc3c(F)ccc4c3CCO4)n3cnnc23)CC1 : yes
O=C(c1ccccc1)N1CC=C(c2cnc(NCc3c(F)ccc4c3CCO4)n3cnnc23)CC1 : yes
O=C(C1CC1)N1CC=C(c2cnc(NCc3c(F)ccc4c3CCO4)n3cnnc23)CC1 : yes
O=C(c1ccccc1)N1CC=C(c2cnc(NCc3ccco3)n3cnnc23)CC1 : no
O=C(C1CCOCC1)N1CC=C(c2cnc(NCc3c(F)ccc4c3CCO4)n3cnnc23)CC1 : yes

###

# Tested on: Pfeiffer cells
# Assay: Pfeiffer cell growth inhibition in a long term (11 days), CellTiter-Glo
# Assay type: cell-based, Human
# Test Context: Homo sapiens, 264 h, 11 days, read-out: Experiment on Pfeiffer cell growth inhibition in a long term (11 days IC50)
Measured Property: IC50 (nM)

CN1CC=C(c2cnc(NCc3c(F)ccc4c3CCO4)n3cnnc23)CC1 : 7.7
CC1(C)CC(c2cnc(NCc3c(F)ccc4c3CCO4)n3cnnc23)=CCO1 : 8.1
CC1CC(c2cnc(NCc3c(F)ccc4c3CCO4)n3cnnc23)=CCO1 (stereo not shown) : 7
Fc1ccc2c(c1CNc1ncc(C3=CCOCC3)c3nncn13)CCO2 : 8
